Target: T1, FX activation peptide 12-mer AQATSSSGEAPD (human)
T1 peptide: AQATSSSGEAPD-biotin
Test: peptide ELISA
Ends that are not written are not given here.
The reader will find reported ELISA signal relative to background values listed item by item below.
The answer should be written as a number, with no unit following it.

As a guide, the following entries are already answered.
binder	endpointValue
Nb 501A02 (VHH, monovalent control Nanobody; also called control Nanobody; not shown: C-terminal FLAG3 and HIS6 tag) VHH: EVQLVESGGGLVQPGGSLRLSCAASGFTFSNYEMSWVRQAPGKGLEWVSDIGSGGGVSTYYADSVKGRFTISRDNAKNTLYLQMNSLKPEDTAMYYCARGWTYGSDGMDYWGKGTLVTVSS	0.79
Nb 729C08 (VHH, monovalent Nanobody; also called Nb 729008; not shown: C-terminal FLAG3 and HIS6 tag) VHH: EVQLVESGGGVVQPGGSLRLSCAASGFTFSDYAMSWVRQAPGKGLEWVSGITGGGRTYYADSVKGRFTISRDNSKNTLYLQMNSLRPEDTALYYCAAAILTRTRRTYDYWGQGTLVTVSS	1.17
Nb 701C06 (VHH, monovalent Nanobody; not shown: C-terminal FLAG3 and HIS6 tag) VHH: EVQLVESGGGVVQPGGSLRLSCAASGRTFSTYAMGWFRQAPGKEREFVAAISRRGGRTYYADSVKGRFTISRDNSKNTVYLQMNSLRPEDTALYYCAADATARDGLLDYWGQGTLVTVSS	0.91

// moving on: another record for ELISA signal relative to background
Input line: // returns reported ELISA signal relative to background for input Nb 702C12 (VHH, monovalent Nanobody; not shown: C-terminal FLAG3 and HIS6 tag) VHH: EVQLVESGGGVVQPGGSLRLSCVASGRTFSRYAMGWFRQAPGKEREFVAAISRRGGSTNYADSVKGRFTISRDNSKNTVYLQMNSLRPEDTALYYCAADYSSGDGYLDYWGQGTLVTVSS
Output line: 0.97
